// read-out IC50, gathered for Autotaxin (Homo sapiens, UniProt Q13822) from published studies
assay.metric: IC50 (nM)

Example cases with answers are listed next.
compound: CCn1cc(/C(=N/Nc2nc(-c3ccc(OC)cc3)c(C#N)s2)C(F)(F)F)c2cc(-c3nc(CN4CC(O)C4)cs3)ccc21
u: nM
experimental.value: 910
//
compound: CCc1nc2c(C)cc(-c3ccc(CN4CCC(O)CC4)cc3)cn2c1NC(=O)NCc1ccc(Cl)cc1
u: nM
experimental.value: 237
//
compound: CCn1cc(NC(=O)NCc2ccc(F)cc2)c2cc(NC(=O)c3ccc(CN4CCCC4)cc3)ccc21
u: nM
experimental.value: 280
//
compound: C[C@H](CCC(=O)N1CCc2nc(NCc3ccccc3)ncc2C1)[C@H]1CC[C@H]2[C@@H]3[C@@H](O)C[C@@H]4C[C@H](O)CC[C@]4(C)[C@H]3CC[C@]12C
u: nM
experimental.value: 342
//
compound: O=C(Cc1ccc(F)cc1)Nc1c2c(nn1-c1ccc(Br)cc1)CSC2
u: nM
experimental.value: 7600

A: CCc1nc2ccc(N3CCN(CC(=O)N4CC(O)C4)CC3)cn2c1N(C)c1nc(-c2ccc(F)cc2)cs1
B: CCn1cc(NC(=O)NCc2ccc(F)cc2)c2cc(NC(=O)c3ccc(CN4CCCCC4)cc3)ccc21
Task item: Which record would sort first by descending IC50, A or B ? Record your answer as the label of the chosen record.
Reply: B
(B: 530 nM, A: 274 nM)

A: Cc1[nH]c2cc(F)c(N3CCC(C(=O)N4CCOCC4)CC3)cc2c1/C=N/Nc1nc(-c2ccc(F)cc2)c(C#N)s1
B: O=C(Nc1ccc(OS(=O)(=O)c2ccc(C(F)(F)F)cc2)cc1)c1ccc(Cl)cc1
C: CCc1nc2ccc(N3CCN(CC(=O)N4CC(O)C4)CC3)nn2c1N(C)c1nc(-c2ccc(F)cc2)c(C#N)s1
Task item: Put the items in order so that reported IC50 rises from first to last. Thanks in advance for listing the labels in the requested order.
Reply: C, A, B
(C: 60 nM, A: 104 nM, B: 1070 nM)

I: CCCCCCC/C=C/CCCCCCCCC1OCC(COP(=O)(O)O)O1 (stereo not drawn)
II: O=C(Nc1c2c(nn1-c1cnccn1)CSC2)c1cccc2ccccc12
III: CCn1cc(/C(=N/Nc2nc(-c3ccc(OC)cc3)c(C#N)s2)C(F)(F)F)c2cc(-c3nc(CN4CCN(C)CC4)cs3)ccc21
Task item: Sort by IC50, descending. # respond with the labels, arranged in the requested order
Reply: III, II, I

I: O=C(Nc1ccc(OS(=O)(=O)c2ccc(C(F)(F)F)cc2)cc1)C1CCCC1
II: CCn1cc(/C(=N/Nc2nc(-c3ccc(Cl)cc3)c(C#N)s2)C(F)(F)F)c2cc(-c3nc(CN4CCN(C)CC4)cs3)ccc21
III: CCn1cc(/C(=N/Nc2nc(-c3ccc(F)cc3)c(C#N)s2)C(F)(F)F)c2cc(-c3nc(CN4CCC[C@H]4CO)cs3)ccc21
Task item: Arrange by IC50, high to low. Labels, ranked as asked.
Reply: III, II, I
(III: 5270 nM, II: 1210 nM, I: 659 nM)

* * *

# pIC50 against Autotaxin (Homo sapiens), merged from multiple literature sources
pIC50: −log10 of the molar value.
assay.metric: pIC50

smiles.text: CCn1cc(/C(=N/Nc2nc3ccccc3s2)C(F)(F)F)c2cc(-c3nc(CN4CCCC4)cs3)ccc21
pIC50: 6.90

1: CCn1cc(C(=O)N/N=C(\C)c2ccc(F)cc2F)c2cc(-c3nc(CN4CCOCC4)cs3)ccc21
2: CCCCCCC/C=C/CCCCCCCC[C@H]1OC[C@@H](COP(=O)(O)O)O1
3: CCc1nc2c(C)cc(-c3ccc(CN4CCOCC4)cc3)cn2c1NC(=O)NCc1ccc(Cl)cc1
4: O=C(Nc1ccc(OS(=O)(=O)c2ccccc2)cc1)C1CCCCCCC1
5: CCn1cc(NC(=O)NCc2ccc(Cl)cc2)c2cc(NC(=O)c3ccc(CN4CCOCC4)cc3)ccc21
Task item: Order field: pIC50 | Direction: descending (largest first) Arrange the labels as the request states and list them.
Reply: 5, 2, 3, 1, 4
(5: 6.97, 2: 6.75, 3: 6.55, 1: 5.03, 4: 4.18)

1: Cc1ccc(S(=O)(=O)Oc2ccc(NC(=O)c3ccc4ccccc4c3)cc2)cc1
2: CCc1nc2c(C)cc(-c3ccc(CN4CCCCC4)cc3)cn2c1NC(=O)NCc1ccc(Cl)cc1
3: CCN1CCN(Cc2csc(-c3ccc4c(c3)c(/C(=N/Nc3nc(-c5ccc(F)cc5)c(C#N)s3)C(F)(F)F)cn4CC)n2)CC1
4: CCn1cc(/C(=N/Nc2nc3ccccc3s2)C(F)(F)F)c2cc(-c3nc(CN4CCC(C)CC4)cs3)ccc21
Task item: Order the items by recorded pIC50; the first position goes to the largest value. Dear reader, please state the labels in the requested order.
Reply: 4, 2, 3, 1
(4: 6.47, 2: 6.19, 3: 5.81, 1: 5.10)

A: CCn1cc(C(=O)N/N=C/c2ccc(F)cc2Cl)c2cc(-c3nc(CN4CCOCC4)cs3)ccc21
B: C[C@H](CCC(=O)N1CCc2nc(NCCc3ccccc3Br)ncc2C1)[C@H]1CC[C@H]2[C@@H]3[C@@H](O)C[C@@H]4C[C@H](O)CC[C@]4(C)[C@H]3CC[C@]12C
C: COc1ccc(-c2nc(N/N=C(/c3c(C)[nH]c4cc(F)c(N5CCN(CCN(C)C)CC5)cc34)C(F)(F)F)sc2C#N)cc1
Task item: Ordering criterion: pIC50; begin with the maximum. When ranking, write the labels in the order the request describes.
Reply: B, C, A
(B: 7.03, C: 6.78, A: 5.20)
